Listed below: IC50 values for each entry.
- study system: C-X-C chemokine receptor type 2 (Homo sapiens, UniProt P25025)
- Sequence (P25025 whole entry): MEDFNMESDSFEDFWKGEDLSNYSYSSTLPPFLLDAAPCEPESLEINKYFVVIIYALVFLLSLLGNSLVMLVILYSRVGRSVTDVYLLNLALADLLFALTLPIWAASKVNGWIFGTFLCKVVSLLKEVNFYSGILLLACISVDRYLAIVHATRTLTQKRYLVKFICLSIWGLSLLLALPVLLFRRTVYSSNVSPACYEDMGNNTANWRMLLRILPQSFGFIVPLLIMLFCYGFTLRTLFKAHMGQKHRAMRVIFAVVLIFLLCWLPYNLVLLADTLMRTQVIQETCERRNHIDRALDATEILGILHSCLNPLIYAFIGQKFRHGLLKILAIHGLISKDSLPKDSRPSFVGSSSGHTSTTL
- method notes: Antagonist activity at human recombinant Gal4-VP16 fused-CXCR2 assessed as inhibition of CXCL1-mediated lactamase reporter gene expression after overnight incubation
Hi! Could you send only the number? It should be in pM, unit omitted.

Use these answered entries as a reference point.
>>> value_measured("O=C(Nc1ccc(Cl)c(S(=O)(=O)C2CCNCC2)c1O)Nc1cccc(Cl)c1Cl")
2000
>>> value_measured("CN1CC[C@H](S(=O)(=O)c2c(Cl)ccc(NC(=O)Nc3cccc(Cl)c3Cl)c2O)C1")
1260
>>> value_measured("CN1CCC2(CCC(S(=O)(=O)c3c(Cl)ccc(NC(=O)Nc4cccc(F)c4Cl)c3O)CC2)CC1")
398
>>> value_measured("CC(C)S(=O)(=O)c1c(Cl)ccc(NC(=O)Nc2cccc(Cl)c2Cl)c1O")
631
>>> value_measured("CCN1CCC(S(=O)(=O)c2c(Cl)ccc(NC(=O)Nc3cccc(F)c3Cl)c2O)CC1")
1260

Documented IC50 of "CC(C)S(=O)(=O)c1c(Cl)ccc(NC(=O)Nc2cccc(F)c2Cl)c1O" : 501

Documented IC50 of "CN1CCN(S(=O)(=O)c2c(Cl)ccc(NC(=O)Nc3cccc(Cl)c3Cl)c2O)CC1" : 794

Documented IC50 of "C[C@@H]1CN(S(=O)(=O)c2c(Cl)ccc(NC(=O)Nc3cccc(F)c3Cl)c2O)C[C@H](C)O1" : 3980

Documented IC50 of "CN1CCN(S(=O)(=O)c2c(Cl)ccc(NC(=O)Nc3cccc(F)c3Cl)c2O)CC1" : 794

###

- Test system: Brain
- method notes: AUC (0 to 4 hrs) in C57BL/6 mouse brain at 2 mg/kg, ip by UPLC/MS/MS analysis
- Assay type: ADME, organism-based
- Design: dose 2 mg/kg, time < 4 hr, route intraperitoneal
- test context: in vivo
Listed below: AUC values for each entry.
Hi! Could you send only the number? It should be in ng·h/g, unit omitted.

Use these answered entries as a reference point.
>>> value_measured("CN1CCC[C@H](S(=O)(=O)c2c(Cl)ccc(NC(=O)Nc3cccc(F)c3Cl)c2O)CC1")
99.1
>>> value_measured("O=C(Nc1ccc(Cl)c(S(=O)(=O)C2CCOC2)c1O)Nc1cccc(Cl)c1Cl (configuration not stated)")
59

Documented AUC of "O=C(Nc1ccc(Cl)c(S(=O)(=O)C2CCOCC2)c1O)Nc1cccc(Cl)c1Cl" : 37

###

Listed below: AUC(0-t) at 4 h values for each entry.
- method notes: AUC (0 to 4 hrs) in C57BL/6 mouse blood at 2 mg/kg, ip by UPLC/MS/MS analysis
- Type: ADME, organism-based
- Set-up: dose 2 mg/kg, time < 4 hr, route intraperitoneal
- test context: C57BL/6, mouse, blood
Hi! Could you send only the number? It should be in ng·h/mL, unit omitted.

Use these answered entries as a reference point.
>>> value_measured("CN1CCN(S(=O)(=O)c2c(Cl)ccc(NC(=O)Nc3cccc(F)c3Cl)c2O)CC1")
176
>>> value_measured("CC(C)S(=O)(=O)c1c(Cl)ccc(NC(=O)Nc2cccc(F)c2Cl)c1O")
198
>>> value_measured("CC(C)(C)S(=O)(=O)c1c(Cl)ccc(NC(=O)Nc2cccc(F)c2Cl)c1O")
355
>>> value_measured("CC(C)N1CCN(S(=O)(=O)c2c(Cl)ccc(NC(=O)Nc3cccc(F)c3Cl)c2O)CC1")
52.9

Documented AUC(0-t) at 4 h of "CCN1CCN(S(=O)(=O)c2c(Cl)ccc(NC(=O)Nc3cccc(F)c3Cl)c2O)CC1" : 189

Documented AUC(0-t) at 4 h of "O=C(Nc1ccc(Cl)c(S(=O)(=O)C2CCNCC2)c1O)Nc1cccc(Cl)c1Cl" : 904

Documented AUC(0-t) at 4 h of "O=C(Nc1ccc(Cl)c(S(=O)(=O)C2CCC2)c1O)Nc1cccc(F)c1Cl" : 103

###

- study system: C-X-C chemokine receptor type 2 (Homo sapiens, UniProt P25025)
- method notes: Antagonist activity at human recombinant Gal4-VP16 fused-CXCR2 assessed as inhibition of CXCL1-mediated lactamase reporter gene expression after overnight incubation
reported property: IC50 (nM)
Hi! Could you send only the number? It should be in nM, unit omitted.

Use these answered entries as a reference point.
>>> value_measured("C[C@@H]1CN(S(=O)(=O)c2c(Cl)ccc(NC(=O)Nc3cccc(Cl)c3Cl)c2O)C[C@H](C)O1")
10
>>> value_measured("CCS(=O)(=O)c1c(Cl)ccc(NC(=O)Nc2cccc(Cl)c2Cl)c1O")
0.501
>>> value_measured("O=C(Nc1ccc(Cl)c(S(=O)(=O)C2CCOC2)c1O)Nc1cccc(Cl)c1Cl (stereo not drawn)")
0.501
>>> value_measured("CC(C)N1CCN(S(=O)(=O)c2c(Cl)ccc(NC(=O)Nc3cccc(F)c3Cl)c2O)CC1")
1.58
>>> value_measured("CCN1CCN(S(=O)(=O)c2c(Cl)ccc(NC(=O)Nc3cccc(F)c3Cl)c2O)CC1")
1

Documented IC50 of "CC(C)(C)S(=O)(=O)c1c(Cl)ccc(NC(=O)Nc2cccc(F)c2Cl)c1O" : 0.501

Documented IC50 of "CN1CC2(CC(S(=O)(=O)c3c(Cl)ccc(NC(=O)Nc4cccc(F)c4Cl)c3O)C2)C1" : 0.398

Documented IC50 of "O=C(Nc1ccc(Cl)c(C(=O)N2CCCC2)c1O)Nc1cccc(F)c1Cl" : 1

###

- Tested on: Brain
- method notes: AUC (0 to 4 hrs) in C57BL/6 mouse brain at 2 mg/kg, ip by UPLC/MS/MS analysis
- Assay type: ADME, organism-based
- Set-up: dose 2 mg/kg, time < 4 hr, route intraperitoneal
- test context: in vivo
Tag: 1 (yes) if measured AUC is not below 30 ng·h/g, 0 (no) if it is.

Record excerpt, results attached:
>>> label("C[C@@H]1CN(S(=O)(=O)c2c(Cl)ccc(NC(=O)Nc3cccc(F)c3Cl)c2O)C[C@H](C)O1")
"1 (yes)"
>>> label("CN1CC2(CC(S(=O)(=O)c3c(Cl)ccc(NC(=O)Nc4cccc(F)c4Cl)c3O)C2)C1")
"0 (no)"
>>> label("CN1CC[C@H](S(=O)(=O)c2c(Cl)ccc(NC(=O)Nc3cccc(Cl)c3Cl)c2O)C1")
"1 (yes)"
>>> label("CN1CC[C@H](S(=O)(=O)c2c(Cl)ccc(NC(=O)Nc3cccc(F)c3Cl)c2O)C1")
"1 (yes)"
>>> label("O=C(Nc1ccc(Cl)c(S(=O)(=O)C2CCCC2)c1O)Nc1cccc(F)c1Cl")
"0 (no)"
>>> label("CCN1CCN(S(=O)(=O)c2c(Cl)ccc(NC(=O)Nc3cccc(F)c3Cl)c2O)CC1")
"1 (yes)"

# check: AUC of "CN1CCC(S(=O)(=O)c2c(Cl)ccc(NC(=O)Nc3cccc(Cl)c3Cl)c2O)CC1" is greater than or equal to 30 ng·h/g
1 (yes)

# check: AUC of "CC(C)(C)S(=O)(=O)c1c(Cl)ccc(NC(=O)Nc2cccc(F)c2Cl)c1O" is greater than or equal to 30 ng·h/g
1 (yes)

###

- method notes: AUC (0 to 4 hrs) in C57BL/6 mouse blood at 2 mg/kg, ip by UPLC/MS/MS analysis
- Assay type: ADME, organism-based
- Design: dose 2 mg/kg, time < 4 hr, route intraperitoneal
- test context: C57BL/6, mouse, blood
reported property: AUC(0-t) at 4 h (ng·h/mL)
Hi! Could you send only the number? It should be in ng·h/mL, unit omitted.

>>> value_measured("O=C(Nc1ccc(Cl)c(S(=O)(=O)C2CCCC2)c1O)Nc1cccc(F)c1Cl")
2.98
>>> value_measured("C[C@@H]1CN(S(=O)(=O)c2c(Cl)ccc(NC(=O)Nc3cccc(F)c3Cl)c2O)C[C@H](C)O1")
279

Documented AUC(0-t) at 4 h of "CN1CCC2(CCC(S(=O)(=O)c3c(Cl)ccc(NC(=O)Nc4cccc(F)c4Cl)c3O)CC2)CC1" : 1480

Documented AUC(0-t) at 4 h of "CN1CCC(S(=O)(=O)c2c(Cl)ccc(NC(=O)Nc3cccc(Cl)c3Cl)c2O)CC1" : 600

Documented AUC(0-t) at 4 h of "CCS(=O)(=O)c1c(Cl)ccc(NC(=O)Nc2cccc(Cl)c2Cl)c1O" : 256

Documented AUC(0-t) at 4 h of "CN1CC[C@H](S(=O)(=O)c2c(Cl)ccc(NC(=O)Nc3cccc(F)c3Cl)c2O)C1" : 432
